# Test system: HBsAg in HBV-infected PHH
# MEASUREMENT DESCRIPTION: Cryopreserved primary human hepatocytes (PHH) HBV infection assay, extracellular HBsAg (CLIA)
# Type: cell-based
# CONDITION DETAILS: Hepatitis B virus, Hepatocyte, 216 h, read-out: HBsAg IC50, Cryopreserved PHH infected with HBV, 9 days post-compound treatment, extracellular HBsAg
pIC50: −log10 of the molar value.
MEASURED ENDPOINT: pIC50

[[record]]
compound = "O=C(O)C1CC(Oc2cc(OC(F)(F)F)ccc2-c2cc(=O)c3cccc(Cl)c3o2)C1 (stereo not shown)"
measured_endpoint = "pIC50"
numeric_readout = 5.16

[[record]]
compound = "O=C(O)CCCOc1cc(C(F)(F)F)ccc1-c1cc(=O)c2cccc(Cl)c2o1"
measured_endpoint = "pIC50"
numeric_readout = 5.16

[[record]]
compound = "Cc1cc(-c2cc(=O)c3cccc(Cl)c3o2)c(O[C@H]2C[C@H](C(=O)O)C2)cc1Br"
measured_endpoint = "pIC50"
numeric_readout = 5.99

[[record]]
compound = "Cc1cc(-c2cc(=O)c3cccc(Cl)c3o2)c(OCCC(=O)O)cc1OC(F)(F)F"
measured_endpoint = "pIC50"
numeric_readout = 5.74

[[record]]
compound = "COc1cc(-c2cc(=O)c3cccc(Cl)c3o2)c(OCCC(=O)O)cc1Br"
measured_endpoint = "pIC50"
numeric_readout = 5.56

[[record]]
compound = "Cc1cc(-c2cc(=O)c3cccc(Cl)c3o2)c(OCCC(=O)O)cc1Cl"
measured_endpoint = "pIC50"
numeric_readout = 6.26

[[record]]
compound = "O=c1cc(-c2cc3c(cc2OCCO[C@H]2C[C@H](C(=O)O)C2)OCO3)oc2c(Cl)cccc12"
measured_endpoint = "pIC50"
numeric_readout = 5.28

[[record]]
compound = "Cc1ccc(-c2cc(=O)c3cccc(Cl)c3o2)c(OCCO[C@H]2C[C@@H](C(=O)O)C2)c1"
measured_endpoint = "pIC50"
numeric_readout = 5.06

[[record]]
compound = "COc1cc(OCCO[C@H]2C[C@@H](C(=O)O)C2)c(-c2cc(=O)c3cccc(Cl)c3o2)cc1OCC(F)(F)F"
measured_endpoint = "pIC50"
numeric_readout = 5.04

[[record]]
compound = "O=C(O)C1CC(Oc2cc(Br)ccc2-c2cc(=O)c3cccc(Cl)c3o2)C1 (stereo not shown)"
measured_endpoint = "pIC50"
numeric_readout = 5.99

[[record]]
compound = "O=c1cc(-c2ccccc2OCCO[C@H]2C[C@@H](C(=O)O)C2)oc2c(Cl)cccc12"
measured_endpoint = "pIC50"
numeric_readout = 5.59

[[record]]
compound = "O=C(O)C1CC(Oc2cc(C(F)(F)F)ccc2-c2cc(=O)c3cccc(Cl)c3o2)C1 (stereo not shown)"
measured_endpoint = "pIC50"
numeric_readout = 5.36

[[record]]
compound = "O=C(O)[C@H](COc1cc(C(F)(F)F)ccc1-c1cc(=O)c2cccc(Cl)c2o1)NS(=O)(=O)C1CC1"
measured_endpoint = "pIC50"
numeric_readout = 5.91

[[record]]
compound = "O=c1cc(-c2cc(F)c(Br)cc2OCCO[C@H]2C[C@@H](C(=O)O)C2)oc2c(Cl)cccc12"
measured_endpoint = "pIC50"
numeric_readout = 5.02

[[record]]
compound = "O=C(O)COCC(O)COc1cc(Br)ccc1-c1cc(=O)c2cccc(Cl)c2o1 (stereo not shown)"
measured_endpoint = "pIC50"
numeric_readout = 5.05

[[record]]
compound = "O=C1CCCN1c1ccc(-c2cc(=O)c3cccc(Cl)c3o2)c(OCCO[C@H]2C[C@@H](C(=O)O)C2)c1"
measured_endpoint = "pIC50"
numeric_readout = 5.18


====

# Tested on: HBsAg in HBV-infected PHH
# MEASUREMENT DESCRIPTION: Cryopreserved primary human hepatocytes (PHH) HBV infection assay, extracellular HBsAg (CLIA)
# Format: cell-based
# CONDITION DETAILS: Hepatitis B virus, Hepatocyte, 216 h, read-out: HBsAg IC50, Cryopreserved PHH infected with HBV, 9 days post-compound treatment, extracellular HBsAg
# Procedure: This assay is used to confirm the anti-HBV effect of the compounds in HBV PHH infection assay. […] At 9 days post-compound treatment, extracellular HBsAg level were measured with Chemiluminescence Immuno Assay (CLIA) kit (Autobio, HBsAg Quantitative CLIA). Extracellular HBV DNA was extracted by MagNA Pure 96 system (Roche) and then determined by quantitative PCR with the following primers and probe: […]
pIC50: −log10 of the molar value.
Measured pIC50 accompanies every entry in the list below.
MEASURED ENDPOINT: pIC50

[[record]]
compound = "O=c1cc(-c2ccccc2OCCO[C@H]2C[C@H](C(=O)O)C2)oc2c(Cl)cccc12"
measured_endpoint = "pIC50"
numeric_readout = 5.69

[[record]]
compound = "O=C(O)CCOc1cc(OC(F)(F)F)ccc1-c1cc(=O)c2cccc(Cl)c2o1"
measured_endpoint = "pIC50"
numeric_readout = 5.83

[[record]]
compound = "O=C(O)CCOc1cc(Br)cnc1-c1cc(=O)c2cccc(Cl)c2o1"
measured_endpoint = "pIC50"
numeric_readout = 5.53

[[record]]
compound = "N#CC1CC(Oc2cc(C(F)(F)F)ccc2-c2cc(=O)c3cccc(Cl)c3o2)C1 (stereo not shown)"
measured_endpoint = "pIC50"
numeric_readout = 6.10

[[record]]
compound = "CC(CC(=O)O)Oc1cc(C(F)(F)F)ccc1-c1cc(=O)c2cccc(Cl)c2o1 (stereo not shown)"
measured_endpoint = "pIC50"
numeric_readout = 5.15

[[record]]
compound = "O=c1cc(-c2ccccc2O[C@H]2C[C@@H](C(=O)O)C2)oc2c(Br)cccc12"
measured_endpoint = "pIC50"
numeric_readout = 5.42

[[record]]
compound = "Cc1ccc(-c2cc(=O)c3cccc(Cl)c3o2)c(OCCCOCC(=O)O)c1"
measured_endpoint = "pIC50"
numeric_readout = 5.61

[[record]]
compound = "Cc1cc(-c2cc(=O)c3cccc(Cl)c3o2)c(OCCO[C@H]2C[C@@H](C(=O)O)C2)cc1Cl"
measured_endpoint = "pIC50"
numeric_readout = 5.03

[[record]]
compound = "O=C(O)C(O)COc1cc(C(F)(F)F)ccc1-c1cc(=O)c2cccc(Cl)c2o1 (stereo not shown)"
measured_endpoint = "pIC50"
numeric_readout = 5.22

[[record]]
compound = "O=c1cc(-c2ccc(F)cc2OCCO[C@H]2C[C@H](C(=O)O)C2)oc2c(Cl)cccc12"
measured_endpoint = "pIC50"
numeric_readout = 5.04


All values here come from patent US11708344B2.
